B1: GFP aptamer (parent)
chain: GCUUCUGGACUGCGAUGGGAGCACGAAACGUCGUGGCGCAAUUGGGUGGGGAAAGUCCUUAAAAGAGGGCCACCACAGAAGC

- Variants of: B1
- PROCEDURE_DETAILS: HiTS-RAP
- CONDITION: with EGFP
pKd: −log10 of the molar value.
Each item that follows carries a reported pKd.
QUANTITY: pKd

- MUTATION_CODE: "G14A A26G"
  QUANTITY: "pKd"
  RELATIONAL_OPERATOR: "="
  RESULT_VALUE: 8.11
- MUTATION_CODE: "U42G"
  QUANTITY: "pKd"
  RELATIONAL_OPERATOR: "="
  RESULT_VALUE: 8.15
- MUTATION_CODE: "G30U"
  QUANTITY: "pKd"
  RELATIONAL_OPERATOR: "="
  RESULT_VALUE: 8.40
- MUTATION_CODE: "A20G C58U"
  QUANTITY: "pKd"
  RELATIONAL_OPERATOR: "="
  RESULT_VALUE: 7.94
- MUTATION_CODE: "A26G A41G"
  QUANTITY: "pKd"
  RELATIONAL_OPERATOR: "="
  RESULT_VALUE: 8.53
- MUTATION_CODE: "G33C"
  QUANTITY: "pKd"
  RELATIONAL_OPERATOR: "≤"
  RESULT_VALUE: 6.90
- MUTATION_CODE: "G25A A77G"
  QUANTITY: "pKd"
  RELATIONAL_OPERATOR: "="
  RESULT_VALUE: 8.45
- MUTATION_CODE: "A62U"
  QUANTITY: "pKd"
  RELATIONAL_OPERATOR: "="
  RESULT_VALUE: 8.47
- MUTATION_CODE: "A26G A27G"
  QUANTITY: "pKd"
  RELATIONAL_OPERATOR: "="
  RESULT_VALUE: 8.67
- MUTATION_CODE: "A27G A77G"
  QUANTITY: "pKd"
  RELATIONAL_OPERATOR: "="
  RESULT_VALUE: 8.35
- MUTATION_CODE: "U43A"
  QUANTITY: "pKd"
  RELATIONAL_OPERATOR: "="
  RESULT_VALUE: 8.28
- MUTATION_CODE: "A75G A77G"
  QUANTITY: "pKd"
  RELATIONAL_OPERATOR: "="
  RESULT_VALUE: 8.19
- MUTATION_CODE: "C10U C32U"
  QUANTITY: "pKd"
  RELATIONAL_OPERATOR: "="
  RESULT_VALUE: 8.18
- MUTATION_CODE: "G18A"
  QUANTITY: "pKd"
  RELATIONAL_OPERATOR: "≤"
  RESULT_VALUE: 6.90
- MUTATION_CODE: "G50A"
  QUANTITY: "pKd"
  RELATIONAL_OPERATOR: "="
  RESULT_VALUE: 7.17
- MUTATION_CODE: "U31C"
  QUANTITY: "pKd"
  RELATIONAL_OPERATOR: "="
  RESULT_VALUE: 8.37
